Taken from ChEMBL document CHEMBL4371003.

experiment: Half life in mouse; assay type: ADME, organism-based; details: in vivo
Result type: half-life (h)
Expressed in h, but write only the number.

Given O=C(Cc1ccc(-c2ccc(N3CCOCC3)cc2)cn1)NCc1cccc(F)c1 , state its recorded half-life. 2.5

----------
experiment: Ratio of AUC in brain to plasma of mouse at 10 mg/kg, po; format: ADME, organism-based; settings: brain and plasma, read-out: Ratio AUC
Result type: Kp
Output: the number by itself.

Given O=C(Cc1ccc(-c2ccc(OCCN3CCOCC3)cc2)cn1)NCc1ccccc1 [TIRBANIBULIN] , state its recorded Kp. 0.42

----------
assay: Inhibition of human c-SRC expressed in mouse NIH/3T3 cells assessed as reduction in BrdU incorporation after 24 hrs by ELISA
Result type: pIC50
The read-out pIC50 is expressed as -log10 of concentration in moles per litre.

Given COc1cc2c(Nc3c(Cl)ccc4c3OCO4)ncnc2cc1OCCCN1CCCCC1 , state its recorded pIC50. 6.96
